Every entry's value here was drawn from paper PMC13626057.

target: recombinant human CDK7/cyclin H/MNAT1 (Homo sapiens, UniProt P50613); construct: His-tag; assay: LANCE Ultra TR-FRET CDK7 kinase assay (cell-free enzymatic assay); conditions: eight-point dilution, top 3000 nM, read-out: IC50 against CDK7
measured attribute: IC50

- C=C(F)C(=O)Nc1ccc2c(-c3ccccc3CNc3nc(NC[C@H]4CCNC[C@@H]4O)nc4c(C(C)C)cnn34)nccc2c1 [Q901]: 10.4 nM

====

biological target: CDK8 (Homo sapiens, UniProt P49336)
Sequence (P49336 whole entry): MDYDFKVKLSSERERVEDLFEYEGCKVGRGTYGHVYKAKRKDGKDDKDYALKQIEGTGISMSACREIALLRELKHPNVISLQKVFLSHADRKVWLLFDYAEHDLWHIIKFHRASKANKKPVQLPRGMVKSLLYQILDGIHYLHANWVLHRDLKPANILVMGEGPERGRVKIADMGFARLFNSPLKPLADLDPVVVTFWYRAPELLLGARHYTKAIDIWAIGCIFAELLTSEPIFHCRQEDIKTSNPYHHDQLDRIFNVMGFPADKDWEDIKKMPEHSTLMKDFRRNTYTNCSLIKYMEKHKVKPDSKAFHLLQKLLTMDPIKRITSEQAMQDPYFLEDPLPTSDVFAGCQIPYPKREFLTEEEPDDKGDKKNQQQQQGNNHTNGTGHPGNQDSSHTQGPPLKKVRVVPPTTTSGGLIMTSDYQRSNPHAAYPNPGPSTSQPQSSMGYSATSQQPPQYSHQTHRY
Sequence (P24863 whole entry partner): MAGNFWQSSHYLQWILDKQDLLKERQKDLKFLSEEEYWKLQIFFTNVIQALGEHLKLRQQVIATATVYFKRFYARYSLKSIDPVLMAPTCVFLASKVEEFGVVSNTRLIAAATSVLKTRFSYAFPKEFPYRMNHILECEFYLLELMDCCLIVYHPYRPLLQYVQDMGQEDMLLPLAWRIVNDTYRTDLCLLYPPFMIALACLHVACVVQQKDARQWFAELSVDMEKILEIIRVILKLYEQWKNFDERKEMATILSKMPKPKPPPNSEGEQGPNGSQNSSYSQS
measured attribute: IC50

- C=C(F)C(=O)Nc1ccc2c(-c3ccccc3CNc3nc(NC[C@H]4CCNC[C@@H]4O)nc4c(C(C)C)cnn34)nccc2c1: > 10 µM

====

Tested on: MCF-7 cells
Experiment: MCF-7 cell viability (ATP Lite system)
Format: cell-based
Conditions: Homo sapiens, MCF7; 120 hours; read-out: IC50 MCF-7 cell growth
Procedure: Fig. 2. Q901 alters RNAPII phosphorylation and transcriptional activity. (A) MCF-7 cells were treated with Q901 at the indicated concentrations for 72, 96, or 120 hours. Cell viability was measured using the ATP Lite system. […] Cells were seeded into 96-well plates and treated with compounds at the indicated concentrations and time points. […] Luminescence was measured using the EnVision Multi Label Reader (PerkinElmer, Waltham, MA, USA). […]
pIC50: −log10 of the molar value.
measured attribute: pIC50

- C=C(F)C(=O)Nc1ccc2c(-c3ccccc3CNc3nc(NC[C@H]4CCNC[C@@H]4O)nc4c(C(C)C)cnn34)nccc2c1 [Q901]: 8.30

====

test system: MCF-7 cells; assay: MCF-7 cell viability (ATP Lite system); assay type: cell-based; conditions: Homo sapiens, MCF7; 72 hours; read-out: IC50 MCF-7 cell growth
measured attribute: IC50 (nM)

* C=C(F)C(=O)Nc1ccc2c(-c3ccccc3CNc3nc(NC[C@H]4CCNC[C@@H]4O)nc4c(C(C)C)cnn34)nccc2c1 | 95

====

target: CDK7 (Homo sapiens, UniProt P50613); construct: purchased Reaction Biology (Freiburg, Germany), assay service; assay: Radiometric protein kinase assay (PanQinase; 410-kinase panel and 28 CDK titration); assay type: biochemical; settings: in vitro, ATP at apparent ATP-Km
Sequence (P50613 whole entry): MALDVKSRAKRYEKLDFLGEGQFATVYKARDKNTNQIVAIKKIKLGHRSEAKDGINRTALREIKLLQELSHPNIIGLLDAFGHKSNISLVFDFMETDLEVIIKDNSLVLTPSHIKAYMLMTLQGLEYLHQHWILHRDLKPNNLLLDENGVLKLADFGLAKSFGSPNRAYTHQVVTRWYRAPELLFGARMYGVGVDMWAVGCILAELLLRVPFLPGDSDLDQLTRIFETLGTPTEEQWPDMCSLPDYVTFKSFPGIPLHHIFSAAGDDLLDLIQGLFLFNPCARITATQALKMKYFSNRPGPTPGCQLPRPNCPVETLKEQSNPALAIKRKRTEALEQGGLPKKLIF
Sequence (P51946 whole entry partner): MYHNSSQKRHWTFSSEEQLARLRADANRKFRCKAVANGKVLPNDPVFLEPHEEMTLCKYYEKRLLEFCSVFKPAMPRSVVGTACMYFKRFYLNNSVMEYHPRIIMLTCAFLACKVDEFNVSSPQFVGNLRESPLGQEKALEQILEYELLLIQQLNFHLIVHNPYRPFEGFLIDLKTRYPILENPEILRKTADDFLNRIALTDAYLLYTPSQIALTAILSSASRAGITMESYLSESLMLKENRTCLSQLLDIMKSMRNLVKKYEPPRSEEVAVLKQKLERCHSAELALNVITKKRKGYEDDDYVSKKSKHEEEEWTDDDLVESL
Sequence (P51948 whole entry partner): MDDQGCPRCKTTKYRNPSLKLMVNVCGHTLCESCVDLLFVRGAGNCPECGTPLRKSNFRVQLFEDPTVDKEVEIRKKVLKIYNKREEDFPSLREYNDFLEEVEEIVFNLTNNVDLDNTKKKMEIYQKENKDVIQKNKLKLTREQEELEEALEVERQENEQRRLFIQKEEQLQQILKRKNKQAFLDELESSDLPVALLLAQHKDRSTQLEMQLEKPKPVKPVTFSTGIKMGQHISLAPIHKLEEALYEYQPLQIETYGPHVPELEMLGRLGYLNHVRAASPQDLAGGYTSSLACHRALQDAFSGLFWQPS
measured attribute: IC50 (nM)

- C=C(F)C(=O)Nc1ccc2c(-c3ccccc3CNc3nc(NC[C@H]4CCNC[C@@H]4O)nc4c(C(C)C)cnn34)nccc2c1 [Q901]: 10
